# Test system: P-388 leukemia
# Measurement Notes: Mouse antitumor efficacy vs P-388 leukemia (Table B)
# Particulars: ip P388; d 1, ip
Reported Optimum Dose values follow for various compounds
Write the value in mg/kg as a bare number.

Sample answers from the record:
COc1cccc2c1C(=N)c1c(O)c3c(c(O)c1C2=O)C[C@@](O)(C(=O)CO)C[C@@H]3O[C@H]1C[C@H](N2CCOCC2)[C@H](O)[C@H](C)O1 :: 2
COc1cccc2c1C(=O)c1c(O)c3c(c(O)c1C2=O)C[C@@](O)(C(=O)CO)C[C@@H]3O[C@H]1C[C@H](N2CCOCC2)[C@H](O)[C@H](C)O1 :: 0.05
COc1cccc2c1C(=O)c1c(O)c3c(c(O)c1C2=O)C[C@@](O)(C(C)=O)C[C@@H]3O[C@H]1C[C@H](N2CCOCC2)[C@H](O)[C@H](C)O1 :: 0.25

For COc1cccc2c1C(=O)c1c(O)c3c(c(O)c1C2=O)C[C@@](O)(C(C)=O)C[C@@H]3O[C@H]1C[C@H](N2CCOCC2C#N)[C@H](O)[C@H](C)O1 (stereo partly shown) , what is its reported Optimum Dose? 0.25
